- Protocol: Administration route study in guinea pigs (Example 5)
- Format: in vivo
- Condition Info: guinea pig, blood, Group 3: 2 mg base/4 mL, oral route

Compound Structure	AUC / ng·h/mL
CN(C)CCc1c[nH]c2ccc(C[C@H]3COC(=O)N3)cc12	77

###

- Protocol: Administration route study in guinea pigs (Example 5)
- Assay type: in vivo
- Condition Info: guinea pig, blood, topical or ocular, Group 4: 2.0 mg base/cm^2, transdermal microporation

Compound Structure	Cmax
CN(C)CCc1c[nH]c2ccc(C[C@H]3COC(=O)N3)cc12	864 ng/mL

###

- Protocol: Effect of filament density, poration energy and filament array size on PK profile (Examples 7-9)
- Design: species or system guinea pigs
- Condition Info: guinea pig, in vivo, sc, 4 mg, Table 17 # 6: dose 4.00 mg, 5 mJ/filament, 1.5 cm^2, 400 filaments/cm^2; relative bioavailability against SC injection; read-out: Bioavailability ± SE

Compound Structure	bioavailability, %
CN(C)CCc1c[nH]c2ccc(C[C@H]3COC(=O)N3)cc12	97.9

Origin of measurements: patent US12324893B2
